- EXPERIMENTAL_SYSTEM: Histone-lysine N-methyltransferase EHMT2 (Homo sapiens) (UniProt Q96KQ7)
- Sequence (Q96KQ7 913-1193 limits assumed): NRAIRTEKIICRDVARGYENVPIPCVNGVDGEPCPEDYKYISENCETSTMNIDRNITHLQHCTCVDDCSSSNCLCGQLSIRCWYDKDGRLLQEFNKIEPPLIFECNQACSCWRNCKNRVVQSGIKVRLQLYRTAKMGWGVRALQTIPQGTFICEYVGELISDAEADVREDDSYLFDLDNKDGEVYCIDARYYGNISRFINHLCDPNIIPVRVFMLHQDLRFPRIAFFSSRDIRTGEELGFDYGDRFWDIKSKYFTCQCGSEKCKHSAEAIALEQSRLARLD
- ASSAY_PROTOCOL: qHTS Assay for Inhibitors of Histone Lysine Methyltransferase G9a; further: nearly all actives have a fitted effect of over 75% in size
- CONDITION_PARAMETERS: G9a H3K9 monomethylation, AlphaScreen, 2 h; series mostly up to 59 µM
Among all 350,000 compounds or so, about 31,000 (8.9%) were called active. About 15% were inconclusive and are not listed. The call rests on the fitted dose curve; in most records, active means well fitted inhibition curve with a large enough effect; inconclusive means small, poorly fitted or top-dose-only effect; inactive means no such curve, though single readings can be large or run the other way. This excerpt belongs to a sample that is enriched for actives.
Labels: active, inactive

1) CN1c2ccc(Cl)cc2-c2nc(SCC(=O)Nc3cc(F)ccc3F)ncc2S1(=O)=O = inactive
2) O=C(Nc1cccc(Br)c1)c1ccc2snnc2c1 = inactive
3) CC(C)NC(=O)C(=O)N/N=C/c1ccco1 = inactive
4) CCOC(=O)C(C)n1cnc2c(nnn2-c2cccc(OC)c2)c1=O (configuration not stated) = inactive
5) Cc1cccc(C(=O)NCC(=O)OCC(=O)N(C)CC(=O)Nc2ccccc2Cl)c1 = inactive
6) Cn1c(SCC(=O)N2CCCc3ccccc32)nc2ccccc2c1=O = inactive
7) CCOc1ccc(-c2cc3nc(C4CCN(C(=O)OC(C)(C)C)CC4)c(C(=O)Nc4cccc(CC)c4)cn3n2)cc1 = inactive
8) CCOCCCNC(=O)c1c(NC(=O)Cc2coc3ccc(C)cc23)sc2c1CCC2 = inactive
9) COc1cccc(OCC(O)CNC(=O)c2oc3c(C)c(C)ccc3c2C)c1 (configuration not stated) = inactive
10) Cc1cc(C)c(NC(=O)c2cc3sc(Cl)cc3n2C)c(C)c1 = inactive
11) CCCC(=O)Nc1cc2nn(-c3ccccc3)nc2cc1C = inactive
12) c1ccc(CSc2nnc(-c3ccco3)c(-c3ccco3)n2)cc1 = active
13) O=c1[nH]c(SCc2ccccc2)nnc1-c1ccccc1 = inactive
14) Cc1ccc(NS(=O)(=O)c2ccc(C)c(NC(=O)COc3ccc4ccccc4c3)c2)c(C)c1 = active
15) COc1ccc(OC)c(-c2csc(-c3c(N)c(C(=O)c4ccccc4)n4ccccc34)n2)c1 = inactive
16) CCOc1cc(C(=O)O)ccc1OCCOc1ccccc1 = inactive
17) CC1CC2C3CCC4=CC(=O)C=C[C@]4(C)[C@@]3(F)[C@@H](O)C[C@]2(C)[C@@]1(O)C(=O)CO (some centres not stated) = inactive
18) CCOc1c(CNCc2ccc(C(=O)O)cc2)cccc1OC = inactive
19) O=C(NCc1ccc(Cl)cc1)c1cc(=O)nc2sc(-c3ccccc3)nn12 = inactive
20) CN(C)S(=O)(=O)c1cccc(NC(=O)COC(=O)/C=C/c2cccs2)c1 = inactive
21) O=C(O)c1ccccc1-c1ccccc1C(=O)Nc1nccs1 = inactive
22) O=C(c1cn(-c2ccccc2)nc1-c1cc2ccccc2oc1=O)N1CCOCC1 = inactive
23) Cc1ccc(C)c(NS(=O)(=O)c2ccc(OCC(=O)NCc3cccnc3)cc2)c1 = inactive
24) CC(NC(=O)C(=O)Nc1nccs1)c1ccccc1 (configuration not stated) = active
25) O=C(NCc1ccc(Cl)cc1)c1cc2c(nc3sccn32)s1 = active
26) O=C(NC1CCCCC1)c1ccc2c(c1)N(Cc1ccc(Cl)cc1)C(=O)c1ccccc1S2=O (configuration not stated) = inactive
27) CCCCNc1ccc(-c2nc(-c3ccncc3)no2)cc1[N+](=O)[O-] = inactive
28) CCOC(=O)C1CCN(c2ncnc3c2c(-c2ccccc2)cn3-c2cccc(C)c2)CC1 = inactive
29) CCOc1ccc(N(C(=O)c2snc(C(N)=O)c2N)C(C(=O)NCC2CCCO2)c2c[nH]c3ccccc23)cc1 (configuration not stated) = active
30) CCOc1cccc2c1N[C@@H](c1ccc(C(=O)O)cc1)[C@H]1CC=C[C@@H]21 = active
31) Cc1cccc(Cn2c(=O)n(CCC(=O)NCCc3ccc(Cl)cc3)c(=O)c3sccc32)c1 = inactive
32) CCOC(=O)CSc1ccccn1 = active
33) CCc1c(C)sc(NC(=O)c2cccs2)c1C(N)=O = active
34) CS(=O)(=O)c1ccc(-c2nnn(CC(=O)Nc3ccc4c(c3)OCCO4)n2)cc1 = inactive
35) O=C(c1ccc(Cn2cc([N+](=O)[O-])cn2)o1)N1CCCC1 = inactive
36) Cc1ccc(C)c(Nc2nnc(-c3ccc(C)c(S(=O)(=O)N4CCCCC4)c3)c3ccccc23)c1 = inactive
37) Cc1cc(C)cc(-n2c(SCC(=O)NCC3CCCO3)nc3c([nH]c4ccccc43)c2=O)c1 (configuration not stated) = inactive
38) O=C(CSc1ccc(-c2ccc(-n3cccn3)cc2)nn1)Nc1ccc([N+](=O)[O-])cc1 = active
39) Cc1ccc(CS(=O)(=O)CCC(=O)NCc2ccc(F)cc2)cc1 = inactive
40) Cc1nnc(SCC(=O)N2CCc3ccccc32)n1-c1ccccc1 = inactive
41) Fc1ccc(-c2nc(Nc3cccc(Cl)c3)nc3c2COc2ccccc2-3)cc1 = inactive
42) CCOC(=O)Cc1ccc(NC(=O)Nc2c[nH]c(=O)[nH]c2=O)cc1 = inactive
